- Target System: recombinant human ACC1 (rhACC1) (Homo sapiens, UniProt Q13085, DEL44-44)
- Construct: recombinant baculovirus containing full length human ACC1 cDNA
- Method Notes: recombinant hACC1 Transcreener assay (direct inhibition of ACC1 activity)
- Condition Context: Transcreener ADP detection FP assay, 50 μM ATP, 30 μM acetyl-CoA, 120 min at 25° C.
Entries annotated with measured IC50
Give just the numeric value; nM need not be written.

// query IC50 value for entry CC(C)n1ncc2c1C(=O)CC1(CCN(C(=O)c3ccc4c(cnn4C)c3)CC1)C2 [Example 2A-11] 261

###

- Target System: recombinant human ACC2 (rhACC2) (Homo sapiens, UniProt O00763, V2141I)
- Construct: a full length Cytomax clone of ACC2 was purchased from Cambridge Bioscience Limited
- Sequence (O00763 whole entry V2141I): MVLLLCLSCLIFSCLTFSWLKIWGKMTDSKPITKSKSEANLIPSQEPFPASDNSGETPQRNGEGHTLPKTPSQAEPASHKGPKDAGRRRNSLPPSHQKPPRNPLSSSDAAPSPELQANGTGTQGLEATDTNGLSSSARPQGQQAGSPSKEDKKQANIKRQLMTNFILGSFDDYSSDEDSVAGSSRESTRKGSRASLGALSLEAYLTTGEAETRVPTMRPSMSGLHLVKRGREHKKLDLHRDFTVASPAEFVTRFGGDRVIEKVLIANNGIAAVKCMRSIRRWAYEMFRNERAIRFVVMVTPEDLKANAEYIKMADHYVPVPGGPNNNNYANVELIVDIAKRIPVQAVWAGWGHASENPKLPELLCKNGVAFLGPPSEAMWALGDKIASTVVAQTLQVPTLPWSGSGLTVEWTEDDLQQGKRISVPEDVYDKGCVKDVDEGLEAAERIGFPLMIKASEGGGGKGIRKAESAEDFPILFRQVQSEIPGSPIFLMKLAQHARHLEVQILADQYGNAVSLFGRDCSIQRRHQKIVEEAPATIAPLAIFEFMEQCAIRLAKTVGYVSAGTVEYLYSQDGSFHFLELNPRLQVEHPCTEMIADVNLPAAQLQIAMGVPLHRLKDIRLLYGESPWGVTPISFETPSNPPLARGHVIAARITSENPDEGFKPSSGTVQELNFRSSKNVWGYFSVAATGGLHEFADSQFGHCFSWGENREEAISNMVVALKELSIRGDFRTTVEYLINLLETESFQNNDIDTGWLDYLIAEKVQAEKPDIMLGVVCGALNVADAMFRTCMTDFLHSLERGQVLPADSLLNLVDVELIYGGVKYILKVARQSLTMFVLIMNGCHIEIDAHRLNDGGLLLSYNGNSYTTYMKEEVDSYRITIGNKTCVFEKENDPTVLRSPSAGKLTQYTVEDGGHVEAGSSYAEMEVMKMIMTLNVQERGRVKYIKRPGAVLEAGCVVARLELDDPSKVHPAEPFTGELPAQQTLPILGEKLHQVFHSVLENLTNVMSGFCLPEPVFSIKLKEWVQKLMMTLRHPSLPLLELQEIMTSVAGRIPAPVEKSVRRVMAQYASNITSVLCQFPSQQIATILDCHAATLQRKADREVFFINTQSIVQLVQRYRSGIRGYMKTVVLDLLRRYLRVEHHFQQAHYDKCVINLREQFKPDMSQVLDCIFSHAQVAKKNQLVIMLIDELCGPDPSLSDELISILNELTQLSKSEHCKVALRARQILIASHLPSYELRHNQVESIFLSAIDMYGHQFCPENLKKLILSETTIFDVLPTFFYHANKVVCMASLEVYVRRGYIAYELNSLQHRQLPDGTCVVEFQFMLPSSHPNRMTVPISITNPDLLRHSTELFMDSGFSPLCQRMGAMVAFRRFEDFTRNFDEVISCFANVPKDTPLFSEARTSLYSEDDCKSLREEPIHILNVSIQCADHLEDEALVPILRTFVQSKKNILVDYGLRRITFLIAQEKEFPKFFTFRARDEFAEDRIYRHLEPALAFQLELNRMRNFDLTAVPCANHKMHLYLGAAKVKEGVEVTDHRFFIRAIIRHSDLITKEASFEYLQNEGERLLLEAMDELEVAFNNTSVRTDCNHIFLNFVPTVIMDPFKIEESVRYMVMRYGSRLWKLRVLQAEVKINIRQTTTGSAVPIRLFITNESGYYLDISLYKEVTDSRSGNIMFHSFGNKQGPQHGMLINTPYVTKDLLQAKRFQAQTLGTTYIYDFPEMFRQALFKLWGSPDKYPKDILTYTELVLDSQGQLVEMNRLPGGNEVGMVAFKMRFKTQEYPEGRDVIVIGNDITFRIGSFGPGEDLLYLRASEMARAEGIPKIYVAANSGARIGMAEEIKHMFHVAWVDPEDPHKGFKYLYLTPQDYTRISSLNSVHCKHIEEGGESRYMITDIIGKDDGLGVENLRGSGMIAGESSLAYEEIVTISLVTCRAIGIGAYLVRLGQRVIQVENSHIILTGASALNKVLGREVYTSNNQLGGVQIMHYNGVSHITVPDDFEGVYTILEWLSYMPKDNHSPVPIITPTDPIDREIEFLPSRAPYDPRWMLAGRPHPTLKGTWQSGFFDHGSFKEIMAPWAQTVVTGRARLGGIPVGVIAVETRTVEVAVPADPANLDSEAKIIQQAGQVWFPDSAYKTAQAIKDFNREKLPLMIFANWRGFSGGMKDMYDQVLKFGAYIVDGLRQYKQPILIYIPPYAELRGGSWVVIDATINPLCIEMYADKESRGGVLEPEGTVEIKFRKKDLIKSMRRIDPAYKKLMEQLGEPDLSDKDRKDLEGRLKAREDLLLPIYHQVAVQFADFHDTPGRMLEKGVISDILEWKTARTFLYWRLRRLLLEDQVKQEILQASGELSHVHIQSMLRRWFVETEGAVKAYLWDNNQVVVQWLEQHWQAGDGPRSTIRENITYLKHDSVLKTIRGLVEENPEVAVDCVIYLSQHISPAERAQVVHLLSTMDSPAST
- Method Notes: recombinant hACC2 Transcreener assay (direct inhibition of ACC2 activity)
- Condition Context: Transcreener ADP detection FP assay, 50 μM ATP, 30 μM acetyl-CoA, 50 min at 25° C.
Entries annotated with measured IC50

Write down the reported IC50 of CC(C)n1ncc2c1C(=O)CC1(CCN(C(=O)c3ccc(-c4ncc[nH]4)cc3)CC1)C2 [Example 11A-1] , test system: recombinant human ACC2 (rhACC2) (Homo sapiens, UniProt O00763, V2141I). 0.0318 µM

Write down the reported IC50 of CC(C)n1nc(C#N)c2c1C(=O)CC1(CCN(C(=O)c3ccc4[nH]ncc4c3)CC1)C2 [Example 2A-76] , test system: recombinant human ACC2 (rhACC2) (Homo sapiens, UniProt O00763, V2141I). 1.5 µM

Write down the reported IC50 of CC(C)(C)n1ncc2c1C(=O)CC1(CCN(C(=O)c3ccc4[nH]ncc4c3)CC1)C2 [Example 2A-28] , test system: recombinant human ACC2 (rhACC2) (Homo sapiens, UniProt O00763, V2141I). 0.017 µM

Now look at this one.
Write down the reported IC50 of CC(C)n1ncc2c1C(=O)CC1(CCN(C(=O)c3cn4cccc4cn3)CC1)C2 [Example 11A-34] , test system: recombinant human ACC2 (rhACC2) (Homo sapiens, UniProt O00763, V2141I). 0.638 µM

###

Entries annotated with measured IC50
- Target System: recombinant human ACC2 (rhACC2) (Homo sapiens, UniProt O00763, V2141I)
- Construct: a full length Cytomax clone of ACC2 was purchased from Cambridge Bioscience Limited
- Method Notes: recombinant hACC2 Transcreener assay (direct inhibition of ACC2 activity)
- Condition Context: Transcreener ADP detection FP assay, 50 μM ATP, 30 μM acetyl-CoA, 50 min at 25° C.
Give just the numeric value; nM need not be written.

Field: example entries. Status: answers known.
// query IC50 value for entry CC(C)(C)n1ncc2c1C(=O)CC1(CCN(C(=O)c3cc(F)c4[nH]ncc4c3)CC1)C2 [Example 2A-44] 30.2

// query IC50 value for entry CC(C)n1ncc2c1C(=O)CC1(CCN(C(=O)c3cnc4ccnn4c3N)CC1)C2 [Example 2A-40] 116

// query IC50 value for entry CC(C)(C)n1ncc2c1C(=O)CC1(CCN(C(=O)c3cnc(-c4ccccn4)[nH]3)CC1)C2 [Example 11A-50] 371

New cases:
// query IC50 value for entry CC(C)(C)n1nc(C#N)c2c1C(=O)CC1(CCN(C(=O)c3ccc4[nH]ncc4c3)CC1)C2 [Example 2A-77] 1300

// query IC50 value for entry CC(C)n1ncc2c1C(=O)CC1(CCN(C(=O)c3ccc4c(c3)ncn4C)CC1)C2 [Example 11A-55] 60.4
